system_tested: SF3b complexes (Homo sapiens, UniProt O75533+Q7RTV0)
Construct: endogenous in cells
measurement_notes: Scintillation proximity assay (SPA) with [3H]-labelled pladienolide probe
reported_conditions: wt SF3B1, read-out: SPA (wt SF3B1 cells) IC50
measure_name: log10 IC50 (log10 of the value in nM)

{"molecule": "C/C(=C\\C=C\\C(C)c1ccncc1)[C@H]1OC(=O)C[C@H](O)CC[C@@](C)(O)[C@@H](OC(=O)N2CCN(C3CCCCCC3)CC2)/C=C/[C@@H]1C (some centres unmarked)", "system_tested": "SF3b complexes (Homo sapiens, UniProt O75533+Q7RTV0)", "log10 IC50": 0.44}
{"molecule": "C/C(=C\\C=C\\C(C)c1cccnc1)[C@H]1OC(=O)C[C@H](O)CC[C@@](C)(O)[C@@H](OC(=O)N2CCC(N3CCC(F)(F)CC3)CC2)/C=C/[C@@H]1C (some centres unmarked)", "system_tested": "SF3b complexes (Homo sapiens, UniProt O75533+Q7RTV0)", "log10 IC50": 1.49}
{"molecule": "C/C(=C\\C=C\\[C@@H](C)c1ccccn1)[C@H]1OC(=O)C[C@H](O)CC[C@@](C)(O)[C@@H](OC(=O)N2CC3(C2)CN(C2CCCCCC2)C3)/C=C/[C@@H]1C", "system_tested": "SF3b complexes (Homo sapiens, UniProt O75533+Q7RTV0)", "log10 IC50": 1.85}
{"molecule": "C/C(=C\\C=C\\[C@@H](C)COC(=O)N1CCC[C@H]1CO)[C@H]1OC(=O)CCCC[C@@](C)(O)[C@@H](OC(=O)N2CCN(C)CC2)/C=C/[C@@H]1C", "system_tested": "SF3b complexes (Homo sapiens, UniProt O75533+Q7RTV0)", "log10 IC50": 0.40}
{"molecule": "CCCN(C)C(=O)OC[C@H](C)/C=C/C=C(\\C)[C@H]1OC(=O)C[C@H](O)CC[C@@](C)(O)[C@@H](OC(C)=O)/C=C/[C@@H]1C", "system_tested": "SF3b complexes (Homo sapiens, UniProt O75533+Q7RTV0)", "log10 IC50": 0.79}
{"molecule": "CC[C@H](O)[C@@H](C)[C@H]1O[C@@H]1C[C@@](C)(O)/C=C/C=C(\\C)[C@H]1OC(=O)C[C@H](O)CC[C@@](C)(OC)[C@@H](OC(=O)N(C)CCNC)/C=C/[C@@H]1C", "system_tested": "SF3b complexes (Homo sapiens, UniProt O75533+Q7RTV0)", "log10 IC50": 1.26}
{"molecule": "C/C(=C\\C=C\\[C@@H](C)COC(=O)N1CC=CC1)[C@H]1OC(=O)C[C@H](O)CC[C@@](C)(O)[C@@H](OC(=O)N2CCN(C3CCCCCC3)CC2)/C=C/[C@@H]1C", "system_tested": "SF3b complexes (Homo sapiens, UniProt O75533+Q7RTV0)", "log10 IC50": 0.57}
{"molecule": "C/C(=C\\C=C\\C(C)c1cccnn1)[C@H]1OC(=O)C[C@H](O)CC[C@@](C)(O)[C@@H](OC(=O)N2CCN(C3CCCCCC3)CC2)/C=C/[C@@H]1C (some centres unmarked)", "system_tested": "SF3b complexes (Homo sapiens, UniProt O75533+Q7RTV0)", "log10 IC50": 0.53}
{"molecule": "C/C(=C\\C=C\\[C@@H](C)c1ccccn1)[C@H]1OC(=O)C[C@H](O)CC[C@@](C)(O)[C@@H](OC(=O)N2CCNCC2)/C=C/[C@@H]1C", "system_tested": "SF3b complexes (Homo sapiens, UniProt O75533+Q7RTV0)", "log10 IC50": 1.43}
{"molecule": "C/C(=C\\C=C\\[C@@H](C)CNC(=O)N1CCC[C@H]1CO)[C@H]1OC(=O)C[C@H](O)CC[C@@](C)(O)[C@@H](OC(=O)N2CCN(C3CCCCCC3)CC2)/C=C/[C@@H]1C", "system_tested": "SF3b complexes (Homo sapiens, UniProt O75533+Q7RTV0)", "log10 IC50": 1.61}
{"molecule": "CC[C@H](O)[C@@H](C)NC(=O)OC[C@H](C)/C=C/C=C(\\C)[C@H]1OC(=O)C[C@H](O)CC[C@@](C)(O)[C@@H](OC(C)=O)/C=C/[C@@H]1C", "system_tested": "SF3b complexes (Homo sapiens, UniProt O75533+Q7RTV0)", "log10 IC50": 1.73}
{"molecule": "C/C(=C\\C=C\\[C@@H](C)COC(=O)N1CCCC12COC2)[C@H]1OC(=O)C[C@H](O)CC[C@@](C)(O)[C@@H](OC(=O)N2CCN(C)CC2)/C=C/[C@@H]1C", "system_tested": "SF3b complexes (Homo sapiens, UniProt O75533+Q7RTV0)", "log10 IC50": 0.98}
{"molecule": "C/C(=C\\C=C\\[C@@H](C)CNC(=O)N1CCCC1)[C@H]1OC(=O)C[C@H](O)CC[C@@](C)(O)[C@@H](OC(=O)N2CCN(C3CCCCCC3)CC2)/C=C/[C@@H]1C", "system_tested": "SF3b complexes (Homo sapiens, UniProt O75533+Q7RTV0)", "log10 IC50": 0.72}
{"molecule": "C/C(=C\\C=C\\[C@@H](C)c1ccccn1)[C@H]1OC(=O)C[C@H](O)CC[C@@](C)(O)[C@@H](OC(=O)N2CCN(C(C)(C)C)CC2)/C=C/[C@@H]1C", "system_tested": "SF3b complexes (Homo sapiens, UniProt O75533+Q7RTV0)", "log10 IC50": 1.12}
{"molecule": "CC[C@H](O)[C@@H](C)[C@H]1O[C@@H]1C[C@H](C)/C=C/C=C(\\C)[C@H]1OC(=O)C[C@H](O)CC[C@@](C)(OC(C)=O)[C@@H](OC(=O)N2CCNCC2)/C=C/[C@@H]1C", "system_tested": "SF3b complexes (Homo sapiens, UniProt O75533+Q7RTV0)", "log10 IC50": 0.33}
{"molecule": "C/C(=C\\C=C\\C(C)c1cccnn1)[C@H]1OC(=O)C[C@H](O)CC[C@@](C)(O)[C@@H](OC(=O)N2CCN(C)CC2)/C=C/[C@@H]1C (some centres unmarked)", "system_tested": "SF3b complexes (Homo sapiens, UniProt O75533+Q7RTV0)", "log10 IC50": 0.96}
{"molecule": "C/C(=C\\C=C\\[C@@H](C)COC(=O)N1[C@H](C)CC[C@H]1C)[C@H]1OC(=O)C[C@H](O)CC[C@@](C)(O)[C@@H](OC(=O)N2CCN(C)CC2)/C=C/[C@@H]1C", "system_tested": "SF3b complexes (Homo sapiens, UniProt O75533+Q7RTV0)", "log10 IC50": 0.44}
{"molecule": "C/C(=C\\C=C\\[C@H](C)c1ccccn1)[C@H]1OC(=O)C[C@H](O)CC[C@@](C)(O)[C@@H](OC(=O)N2CCN(C3CCCCCC3)CC2)/C=C/[C@@H]1C", "system_tested": "SF3b complexes (Homo sapiens, UniProt O75533+Q7RTV0)", "log10 IC50": 0.77}
{"molecule": "C/C(=C\\C=C\\[C@H](C)c1ccccn1)[C@H]1OC(=O)C[C@H](O)CC[C@@](C)(O)[C@@H](OC(=O)N2CCC(N3CCCCCC3)CC2)/C=C/[C@@H]1C", "system_tested": "SF3b complexes (Homo sapiens, UniProt O75533+Q7RTV0)", "log10 IC50": 0.37}
{"molecule": "C/C(=C\\C=C\\[C@@H](C)c1ccccn1)[C@H]1OC(=O)C[C@H](O)CC[C@@](C)(O)[C@@H](OC(=O)N2CCCN(C)CC2)/C=C/[C@@H]1C", "system_tested": "SF3b complexes (Homo sapiens, UniProt O75533+Q7RTV0)", "log10 IC50": 0.84}
{"molecule": "CC(=O)O[C@H]1/C=C/[C@H](C)[C@@H](/C(C)=C/C=C/[C@@H](C)COC(=O)N2CCCCC2)OC(=O)C[C@H](O)CC[C@@]1(C)O", "system_tested": "SF3b complexes (Homo sapiens, UniProt O75533+Q7RTV0)", "log10 IC50": 1.18}
{"molecule": "C/C(=C\\C=C\\C(C)c1cnccn1)[C@H]1OC(=O)C[C@H](O)CC[C@@](C)(O)[C@@H](OC(=O)N2CCN(C3CCCCCC3)CC2)/C=C/[C@@H]1C (some centres unmarked)", "system_tested": "SF3b complexes (Homo sapiens, UniProt O75533+Q7RTV0)", "log10 IC50": 0.80}

* * *

System: Panc 05.04 cells (pancreatic cancer cells; Q699H and K700E mutations in SF3B1)
measurement_notes: Cell viability assay (CellTiter-Glo, 72 hr), Panc 05.04 cells
Type: cell-based
reported_conditions: Panc 05.04 cells (mutant SF3B1); maximum achievable response in tested dose range, negative value = cellular lethality; read-out: Panc 05.04 (mt SF3B1 cells) Emax (%)
Param label: returns T when Emax < -70%, returns F otherwise, including exact equality.

{"compound": "C/C(=C\\C=C\\C(C)c1ccncc1)[C@H]1OC(=O)C[C@H](O)CC[C@@](C)(O)[C@@H](OC(=O)N2CCN(C3CCCCCC3)CC2)/C=C/[C@@H]1C (some centres unmarked)", "group": "T"}
{"compound": "CC(=O)O[C@H]1/C=C/[C@H](C)[C@@H](/C(C)=C/C=C/C(C)CCc2ccccn2)OC(=O)C[C@H](O)CC[C@@]1(C)O (some centres unmarked)", "group": "F"}
{"compound": "C/C(=C\\C=C\\[C@@H](C)CNC(=O)C1CCCC1)[C@H]1OC(=O)C[C@H](O)CC[C@@](C)(O)[C@@H](OC(=O)N2CCN(C3CCCCCC3)CC2)/C=C/[C@@H]1C", "group": "T"}
{"compound": "CCC(=O)[C@@H](C)[C@H]1O[C@@H]1C[C@@](C)(O)/C=C/C=C(\\C)[C@H]1OC(=O)CC(=O)CC[C@@](C)(O)[C@@H](OC(C)=O)/C=C/[C@@H]1C", "group": "T"}
{"compound": "COCCN(C)C(=O)OC[C@H](C)/C=C/C=C(\\C)[C@H]1OC(=O)C[C@H](O)CC[C@@](C)(O)[C@@H](OC(C)=O)/C=C/[C@@H]1C", "group": "T"}
{"compound": "C/C(=C\\C=C\\[C@@H](C)CCC(=O)N1CCCC1)[C@H]1OC(=O)C[C@H](O)CC[C@@](C)(O)[C@@H](OC(=O)N2CCN(C)CC2)/C=C/[C@@H]1C", "group": "T"}
{"compound": "C/C(=C\\C=C\\[C@@H](C)CNC(=O)N1CCCC1)[C@H]1OC(=O)C[C@H](O)CC[C@@](C)(O)[C@@H](OC(=O)N2CCN(C)CC2)/C=C/[C@@H]1C", "group": "T"}
{"compound": "C/C(=C\\C=C\\[C@@H](C)COC(=O)N1CCC[C@H]1CO)[C@H]1OC(=O)CCCCC[C@@H](OC(=O)N2CCN(C)CC2)/C=C/[C@@H]1C", "group": "F"}
{"compound": "CC(=O)O[C@H]1/C=C/[C@H](C)[C@@H](/C(C)=C/C=C/C(C)Cc2ccccn2)OC(=O)C[C@H](O)CC[C@@]1(C)O (some centres unmarked)", "group": "F"}
{"compound": "C/C(=C\\C=C\\[C@@H](C)COC(=O)N1CCCC1)[C@H]1OC(=O)C[C@H](O)CC[C@@](C)(O)[C@@H](OC(=O)N2CCN(C)CC2)/C=C/[C@@H]1C", "group": "T"}
{"compound": "C/C(=C\\C=C\\Cc1ccccn1)[C@H]1OC(=O)C[C@H](O)CC[C@@](C)(O)[C@@H](OC(=O)N2CCN(C3CCCCCC3)CC2)/C=C/[C@@H]1C", "group": "F"}
{"compound": "C/C(=C\\C=C\\C(C)(C)COC(=O)N1CCCC1)[C@H]1OC(=O)C[C@H](O)CC[C@@](C)(O)[C@@H](OC(=O)N2CCN(C3CCCCCC3)CC2)/C=C/[C@@H]1C", "group": "T"}
{"compound": "C\\C(=C/C=C/C=C/[C@@H](C)c1ccccn1)C1OC(=O)C[C@H](O)CC[C@@](C)(O)[C@@H](OC(=O)N2CCN(C3CCCCCC3)CC2)/C=C/[C@@H]1C (some centres unmarked)", "group": "F"}
{"compound": "C/C(=C\\C=C\\[C@@H](C)COC(=O)N1CCC[C@H]1C(=O)O)[C@H]1OC(=O)C[C@H](O)CC[C@@](C)(O)[C@@H](OC(=O)N2CCN(C3CCCCCC3)CC2)/C=C/[C@@H]1C", "group": "F"}
{"compound": "CC[C@H](O)[C@@H](C)[C@H]1O[C@@H]1C[C@H](C)/C=C/C=C(\\C)[C@H]1OC(=O)C[C@H](O)CC[C@@](C)(OC(=O)N2CCNCC2)[C@@H](OC(C)=O)/C=C/[C@@H]1C", "group": "T"}
{"compound": "CC(=O)O[C@H]1/C=C/[C@H](C)[C@@H](/C(C)=C/C=C/C(C)CCc2ccccc2)OC(=O)C[C@H](O)CC[C@@]1(C)O (some centres unmarked)", "group": "F"}
{"compound": "CC[C@H](O)[C@@H](C)[C@H]1O[C@@H]1C[C@H](C)/C=C/C=C(\\C)[C@H]1OC(=O)C[C@H](O)CC[C@@](C)(OC(C)=O)[C@@H](OC(=O)N2CCNCC2)/C=C/[C@@H]1C", "group": "F"}
{"compound": "C/C(=C\\C=C\\[C@@H](C)COC(=O)N1CCCC1)[C@H]1OC(=O)CCCCC[C@@H](OC(=O)N2CCN(C3CCCCCC3)CC2)/C=C/[C@@H]1C", "group": "T"}
{"compound": "C/C(=C\\C=C\\[C@@H](C)COC(=O)N1CCC[C@H]1CF)[C@H]1OC(=O)C[C@H](O)CC[C@H](C)[C@@H](OC(=O)N2CCN(C)CC2)/C=C/[C@@H]1C", "group": "T"}
{"compound": "C/C(=C\\C=C\\[C@@H](C)c1cccnc1)[C@H]1OC(=O)C[C@H](O)CC[C@@](C)(O)[C@@H](OC(=O)N2CCN(C3CCCCCC3)CC2)/C=C/[C@@H]1C", "group": "T"}
{"compound": "COC[C@@H]1CCCN1C(=O)OC[C@H](C)/C=C/C=C(\\C)[C@H]1OC(=O)C[C@H](O)CC[C@@](C)(O)[C@@H](OC(=O)N2CCN(C3CCCCCC3)CC2)/C=C/[C@@H]1C", "group": "T"}
